System: E. multilocularis metacestode vesicles
measurement.description: Metacestode vesicle viability assay (ATP, CellTiter-Glo)
Assay type: cell-based, Echinococcus multilocularis
experimental.conditions: overview screen, 10 μM, singlets, 12 days, relative to DMSO control
Description: Viability was assessed after 12 days using the same metacestode vesicles as for the PGI release assay. Triton X-100 was added to each well to a final concentration of 0.1 %. Subsequently the metacestode vesicles were broken mechanically and 50 μL of the supernatant was mixed with 50 μL of CellTiter-Glo® buffer (Promega, Dübendorf, Switzerland). Measurements were performed on a HIDEX Sense microplate reader.
Response field label: string, one of true (Viability d12 (relative viability) strictly below 90%) or false.

QUERY: Identify whether the molecule Cc1cc(C)n2nc(C(=O)NS(=O)(=O)c3c(C)cccc3OC(F)(F)F)nc2n1 records Viability d12 (relative viability) below 90%.
RESULT: false

QUERY: Identify whether the molecule NS(=O)(=O)c1ccc(NC(=O)NC(c2ccccc2)c2ccccc2)cc1 records Viability d12 (relative viability) below 90%.
RESULT: true

QUERY: Identify whether the molecule Fc1ccc(-c2nc(-c3c[nH]c4ccc(Br)cc34)[nH]c2-c2ccc(F)cc2)cc1 records Viability d12 (relative viability) below 90%.
RESULT: true

QUERY: Identify whether the molecule CC(C)N(c1cc(-c2ccccc2)sc1C(=O)O)C(=O)[C@H]1CC[C@H](C)CC1 records Viability d12 (relative viability) below 90%.
RESULT: true

QUERY: Identify whether the molecule Nc1nc(-c2ccccc2)nc2[nH]nc(Nc3ccc(C(F)(F)F)cc3)c12 records Viability d12 (relative viability) below 90%.
RESULT: false

QUERY: Identify whether the molecule O=C(O)/C=C/C=C/c1cccc(Oc2cc(Cl)cc(Cl)c2)c1 records Viability d12 (relative viability) below 90%.
RESULT: false

QUERY: Identify whether the molecule CC(C)(C)c1ccc(OCCn2nc(C(=O)O)c3ccccc3c2=O)cc1 records Viability d12 (relative viability) below 90%.
RESULT: false

QUERY: Identify whether the molecule Oc1cc(-c2cccc3ccccc23)[nH]n1 records Viability d12 (relative viability) below 90%.
RESULT: true
